Target: UniProt Q9NWZ3
Sequence (Q9NWZ3 1-460): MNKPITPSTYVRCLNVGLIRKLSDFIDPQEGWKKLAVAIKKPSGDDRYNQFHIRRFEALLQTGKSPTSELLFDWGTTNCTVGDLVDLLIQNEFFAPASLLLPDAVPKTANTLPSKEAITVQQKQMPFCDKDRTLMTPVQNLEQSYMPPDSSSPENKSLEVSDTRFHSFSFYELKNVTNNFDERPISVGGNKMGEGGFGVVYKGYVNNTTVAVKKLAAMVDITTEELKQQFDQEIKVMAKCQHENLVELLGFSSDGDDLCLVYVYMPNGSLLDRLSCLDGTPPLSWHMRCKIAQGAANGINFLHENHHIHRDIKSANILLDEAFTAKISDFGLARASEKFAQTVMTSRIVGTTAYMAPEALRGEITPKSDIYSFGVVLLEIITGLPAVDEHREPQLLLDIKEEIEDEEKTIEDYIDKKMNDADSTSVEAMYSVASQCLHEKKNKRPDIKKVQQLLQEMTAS
Experiment: IRAK4 Z-lyte kinase assay (FRET peptide substrate)
Assay type: biochemical
Conditions: Table 1; read-out: IC50 IRAK4

{"columns": ["SMILES_ENTRY", "IC50"],
 "data": [
  ["C=CC(=O)Nc1cccc(-c2cn(-c3ccc(NC(=O)c4cccc(-c5ccn[nH]5)n4)cc3)nn2)c1", "> 10 µM"],
  ["C=CC(=O)Nc1ccc(C(=O)Nc2ccc(NC(=O)c3cccc(-c4ccn[nH]4)n3)cc2)cc1", "> 10 µM"],
  ["CN(C)C/C=C/C(=O)Nc1cccc(C(=O)Nc2ccc(NC(=O)c3cccc(-c4ccn[nH]4)n3)cc2)c1", "> 10 µM"],
  ["C=CC(=O)N[C@H]1CCC[C@@H](C(=O)Nc2ccc(NC(=O)c3cccc(-c4ccn[nH]4)n3)cc2)C1", "> 10 µM"],
  ["C=CC(=O)Nc1cccc(C(=O)Nc2ccc(NC(=O)c3cccc(-c4ccn[nH]4)n3)cc2)c1", "> 10 µM"],
  ["C=CC(=O)Nc1cccc(C(=O)Nc2ccc(NC(=O)c3cccc(-c4cnoc4)n3)cc2)c1", "> 10 µM"],
  ["C=CC(=O)Nc1cccc(C(=O)Nc2ccc(NC(=O)c3cccc(-c4cnn(C)c4)n3)cc2)c1", "> 10 µM"],
  ["CCC(=O)Nc1cccc(C(=O)Nc2ccc(NC(=O)c3cccc(-c4ccn[nH]4)n3)cc2)c1", "> 10 µM"],
  ["C=CC(=O)Nc1cccc(C(=O)Nc2cccc(NC(=O)c3cccc(-c4ccn[nH]4)n3)c2)c1", "> 10 µM"],
  ["C=CC(=O)Nc1cccc(C(=O)Nc2ccc(NC(=O)c3cccc(-c4cn[nH]c4)n3)cc2)c1", "> 10 µM"]
]}
